Test system: Staphylococcus aureus
Assay: Antibacterial activity against efflux-mediated macrolide-resistant Staphylococcus aureus PK1 by broth microdilution method
Assay type: functional
quantity: MIC (µg/mL)
Give bare numbers, in µg/mL.

So for CC[C@H]1OC(=O)[C@H](C)[C@@H](O[C@H]2C[C@@](C)(OC)[C@@H](OC(=O)CCOCCOc3cc4c(=O)c(C(=O)O)cn(C5CC5)c4cc3Cl)[C@H](C)O2)[C@H](C)[C@@H](O[C@@H]2O[C@H](C)C[C@H](N(C)C)[C@H]2O)[C@](C)(O)C[C@@H](C)CN(C)[C@H](C)[C@@H](O)[C@]1(C)O , the logged MIC turned out to be 0.5

====

Tested on: Streptococcus pyogenes
Test: Antibacterial activity against inducible macrolide-lincosamide-streptogramin B resistant Streptococcus pyogenes Finland 11 by broth microdilution method
Assay type: functional
Assign MIC to each entry below.

Record summary for CCCOC(=O)c1cn(C2CC2)c2ccc(NCCOCCC(=O)O[C@H]3[C@H](C)O[C@@H](O[C@H]4[C@H](C)[C@@H](O[C@@H]5O[C@H](C)C[C@H](N(C)C)[C@H]5O)[C@](C)(O)C[C@@H](C)CN(C)[C@H](C)[C@@H](O)[C@](C)(O)[C@@H](CC)OC(=O)[C@@H]4C)C[C@@]3(C)OC)cc2c1=O : reported MIC = ≤ 0.125 µg/mL

# batch: return MIC for each of the 2 compounds below
1. CC[C@H]1OC(=O)[C@H](C)[C@@H](O[C@H]2C[C@@](C)(OC)[C@@H](OC(=O)CCOCCOc3cc4c(=O)c(C(=O)O)cn(C5CC5)c4cc3Cl)[C@H](C)O2)[C@H](C)[C@@H](O[C@@H]2O[C@H](C)C[C@H](N(C)C)[C@H]2O)[C@](C)(O)C[C@@H](C)CN(C)[C@H](C)[C@@H](O)[C@]1(C)O
2. CC[C@H]1OC(=O)[C@H](C)[C@@H](O[C@H]2C[C@@](C)(OC)[C@@H](OC(=O)CCOCCOc3cc4c(=O)c(C(=O)OC(C)C)cn(C5CC5)c4cc3Cl)[C@H](C)O2)[C@H](C)[C@@H](O[C@@H]2O[C@H](C)C[C@H](N(C)C)[C@H]2O)[C@](C)(O)C[C@@H](C)CN(C)[C@H](C)[C@@H](O)[C@]1(C)O

OUT:
1. ≤ 0.125 µg/mL
2. ≤ 0.125 µg/mL

====

Tested on: Staphylococcus aureus
Assay: Antibacterial activity against constitutive macrolide, lincosamide, streptogramin-resistant Staphylococcus aureus PK2 by broth microdilution method
Assay type: functional
Can you tell me MIC for the items I'm about to list?

Hi, could you look up MIC for each item in my list?
1. CC[C@H]1OC(=O)[C@H](C)[C@@H](O[C@H]2C[C@@](C)(OC)[C@@H](OC(=O)CCOCCOc3cc4c(=O)c(C(=O)OC(C)C)cn(C5CC5)c4cc3Cl)[C@H](C)O2)[C@H](C)[C@@H](O[C@@H]2O[C@H](C)C[C@H](N(C)C)[C@H]2O)[C@](C)(O)C[C@@H](C)CN(C)[C@H](C)[C@@H](O)[C@]1(C)O
2. CC[C@H]1OC(=O)[C@H](C)[C@@H](O[C@H]2C[C@@](C)(OC)[C@@H](OC(=O)CCOCCNc3ccc4c(c3)c(=O)c(C(=O)OCCN3CCCCC3)cn4C3CC3)[C@H](C)O2)[C@H](C)[C@@H](O[C@@H]2O[C@H](C)C[C@H](N(C)C)[C@H]2O)[C@](C)(O)C[C@@H](C)CN(C)[C@H](C)[C@@H](O)[C@]1(C)O
3. CCCOC(=O)c1cn(C2CC2)c2ccc(NCCOCCC(=O)O[C@H]3[C@H](C)O[C@@H](O[C@H]4[C@H](C)[C@@H](O[C@@H]5O[C@H](C)C[C@H](N(C)C)[C@H]5O)[C@](C)(O)C[C@@H](C)CN(C)[C@H](C)[C@@H](O)[C@](C)(O)[C@@H](CC)OC(=O)[C@@H]4C)C[C@@]3(C)OC)cc2c1=O

OUT:
1: > 64 µg/mL; 2: > 64 µg/mL; 3: > 64 µg/mL

Could you tell me MIC for each of these molecules? They are listed below.
1. CC[C@H]1OC(=O)[C@H](C)[C@@H](O[C@H]2C[C@@](C)(OC)[C@@H](OC(=O)CCOCCOCCNc3ccc4c(c3)c(=O)c(C(=O)O)cn4CC)[C@H](C)O2)[C@H](C)[C@@H](O[C@@H]2O[C@H](C)C[C@H](N(C)C)[C@H]2O)[C@](C)(O)C[C@@H](C)CN(C)[C@H](C)[C@@H](O)[C@]1(C)O
2. CC[C@H]1OC(=O)[C@H](C)[C@@H](O[C@H]2C[C@@](C)(OC)[C@@H](OC(=O)CCOCCNc3cc4c(=O)c(C(=O)OCOC(=O)C(C)(C)C)cn(C5CC5)c4cc3Cl)[C@H](C)O2)[C@H](C)[C@@H](O[C@@H]2O[C@H](C)C[C@H](N(C)C)[C@H]2O)[C@](C)(O)C[C@@H](C)CN(C)[C@H](C)[C@@H](O)[C@]1(C)O

OUT:
64 µg/mL
> 64 µg/mL

Recorded MIC (molecule CC[C@H]1OC(=O)[C@H](C)[C@@H](O[C@H]2C[C@@](C)(OC)[C@@H](OC(=O)CCOCCOc3ccc4c(c3)c(=O)c(C(=O)O)cn4C3CC3)[C@H](C)O2)[C@H](C)[C@@H](O[C@@H]2O[C@H](C)C[C@H](N(C)C)[C@H]2O)[C@](C)(O)C[C@@H](C)CN(C)[C@H](C)[C@@H](O)[C@]1(C)O ): 32 µg/mL
